These data points were gathered from patent US8236789B2.

# target_of_assay: mouse 11β-HSD1 (Mus musculus, UniProt P50172)
# Construct: expressed in transfected cells
# Sequence (P50172 whole entry): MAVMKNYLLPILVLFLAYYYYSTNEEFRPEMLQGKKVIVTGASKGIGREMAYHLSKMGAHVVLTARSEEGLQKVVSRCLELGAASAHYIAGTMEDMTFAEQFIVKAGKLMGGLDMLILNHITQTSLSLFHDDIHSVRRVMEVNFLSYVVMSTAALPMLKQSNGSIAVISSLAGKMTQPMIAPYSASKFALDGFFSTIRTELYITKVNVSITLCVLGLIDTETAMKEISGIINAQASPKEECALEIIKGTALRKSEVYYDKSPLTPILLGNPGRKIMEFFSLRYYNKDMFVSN
# test_description: Enzyme inhibitory activity assay, lysate of CHO-K1 cells stably expressing mouse 11β-HSD1, cortisol by competitive ELISA
# Assay type: biochemical
# condition_context: Table 2; cell lysate, 100 nmol/L cortisone, NADPH, 37° C. 1 hour; read-out: in vitro assay (IC50 uM) m HSD1
Listing of recorded IC50 by entry.
Give the number; µM is assumed, so skip it.

Study these solved cases before continuing.
{"columns": ["molecule", "IC50 (µM)"],
 "data": [
  ["CSc1ccc(C2N(C3C4CC5CC(C4)CC3C5)C(=O)C2(C)C)cc1 (stereo not drawn) [Example 55]", 0.87],
  ["CC1(C)C(=O)N([C@H]2C3CC4CC2C[C@](C(N)=O)(C4)C3)C1c1cccc2cccnc12 (stereo partly drawn) [Example 20]", 0.053],
  ["CC1(C)C(=O)N(C2C3CC4CC(C3)CC2C4)C1c1cc(Cl)cc(Cl)c1 (stereo not drawn) [Example 31]", 0.076],
  ["CC1(C)C(=O)N(C2C3CC4CC(C3)CC2C4)C1c1cccc(Cl)c1F (stereo not drawn) [Example 25]", 0.18],
  ["CC1(C)C(=O)N(C2C3CC4CC(C3)CC2C4)C1c1ccc(OC(F)(F)F)cc1 (stereo not drawn) [Example 42]", 0.69]
]}

Request: Requested read-out: IC50. Entry: CC1(C)C(=O)N([C@H]2C3CC4CC2C[C@@](Cl)(C4)C3)C1c1cccc(Cl)c1Cl (stereo partly drawn) [Example 4]
Response: 0.34
